Reference source: ChEMBL document CHEMBL3739347

# System: Puccinia triticina
# method description: Antifungal activity against Puccinia recondita f. sp. tritici infected in wheat seedlings at 40 ppm relative to control
# Format: functional
In this section, each of the compounds is paired with its reported Activity.
All answers are understood in %, so give the number only.

[[record]]
smiles_repr = "CC[C@H](C)Cn1c(-c2c(F)cccc2F)c(Cl)nc(-n2nccn2)c1=O"
measured_attribute = "Activity"
reported_measurement = 19

[[record]]
smiles_repr = "Cc1nc(-n2cccn2)c(=O)n(CC(C)C)c1-c1c(F)cccc1F"
measured_attribute = "Activity"
reported_measurement = 100

[[record]]
smiles_repr = "O=c1c(-n2cccn2)nc(Cl)c(-c2c(F)cc(F)cc2F)n1CC1CC1"
measured_attribute = "Activity"
reported_measurement = 100

[[record]]
smiles_repr = "CC(C)Cn1c(-c2c(F)cccc2F)c(Br)nc(-n2cccn2)c1=O"
measured_attribute = "Activity"
reported_measurement = 99

[[record]]
smiles_repr = "CC(C)Cn1c(C2CC2)c(Cl)nc(-n2cccn2)c1=O"
measured_attribute = "Activity"
reported_measurement = 0


Input line: I'd like to know its Activity. The compound in question is `CC(C)Cn1c(-c2ccc(F)cc2Cl)c(Cl)nc(-n2cccn2)c1=O`
Output line: 100

----------
In this section, each of the compounds is paired with its reported Activity.
# Test system: Puccinia triticina
# method description: Antifungal activity against Puccinia recondita f. sp. tritici infected in wheat seedlings at 200 ppm relative to control
# Format: functional
All answers are understood in %, so give the number only.

# annotated cases, reported Activity shown
[[record]]
smiles_repr = "CC[C@H](C)Cn1c(-c2c(F)cc(OC)cc2F)c(Cl)nc(-n2cccn2)c1=O"
reported_measurement = 100

[[record]]
smiles_repr = "CC(=O)O[C@H]1C(=O)[C@@]2(C)[C@H]([C@H](OC(=O)c3ccccc3)[C@]3(O)C[C@H](OC(=O)[C@H](O)[C@@H](NC(=O)c4ccccc4)c4ccccc4)C(C)=C1C3(C)C)[C@]1(OC(C)=O)CO[C@@H]1C[C@@H]2O"
reported_measurement = 95

[[record]]
smiles_repr = "CC(C)Cn1c(C2CCCC2)c(Cl)nc(-n2cccn2)c1=O"
reported_measurement = 100


Input line: Observed Activity on Puccinia triticina for `CC(C)Cn1c(C(C)C)c(Cl)nc(-n2cccn2)c1=O` , please.
Output line: 98

Input line: Observed Activity on Puccinia triticina for `CC(C)Cn1c(-c2c(F)cccc2F)c(Cl)nc(-c2cnccn2)c1=O` , please.
Output line: 99

Input line: Observed Activity on Puccinia triticina for `CC(C)Cn1c(C(C)(C)C)c(Cl)nc(-n2cccn2)c1=O` , please.
Output line: 0

Input line: Observed Activity on Puccinia triticina for `O=c1c(-n2cccn2)nc(Cl)c(-c2c(F)cc(F)cc2F)n1C1CCCCC1` , please.
Output line: 99

Input line: Observed Activity on Puccinia triticina for `CC[C@H](C)Cn1c(-c2c(F)cc(OCCN(C)C)cc2F)c(Cl)nc(-n2cccn2)c1=O` , please.
Output line: 100

----------
# System: Puccinia triticina
# method description: Antifungal activity against Puccinia recondita f. sp. tritici infected in wheat seedlings at 200 ppm relative to control
# Format: functional
measured attribute: Activity (%)
All answers are understood in %, so give the number only.

[[record]]
smiles_repr = "CC(C)Cn1c(C2CC2)c(Cl)nc(-n2cccn2)c1=O"
reading_unit = "%"
reported_measurement = 0

[[record]]
smiles_repr = "CC(C)Cn1c(-c2c(F)cccc2F)c(Cl)nc(-c2cn(C)cn2)c1=O"
reading_unit = "%"
reported_measurement = 99


We next turn to a different compound, shown below.
Input line: Observed Activity on Puccinia triticina for `CC(C)Cn1c(-c2c(F)cccc2F)cnc(-n2cccn2)c1=O` , please.
Output line: 98

----------
# Test system: Puccinia triticina
# method description: Antifungal activity against Puccinia recondita f. sp. tritici infected in wheat seedlings at 10 ppm relative to control
# Type: functional
In this section, each of the compounds is paired with its reported Activity.
All answers are understood in %, so give the number only.

# annotated cases, reported Activity shown
[[record]]
compound = "CC(C)Cn1c(-c2c(F)cccc2F)c(Cl)nc(-c2cn(C)cn2)c1=O"
reading_unit = "%"
reported_measurement = 0

[[record]]
compound = "O=c1c(-n2cccn2)nc(Cl)c(-c2c(F)cc(F)cc2F)n1-c1ccc(Cl)cc1"
reading_unit = "%"
reported_measurement = 100

[[record]]
compound = "CC(C)Cn1c(-c2c(F)cccc2F)c(Cl)nc(-c2cccnc2)c1=O"
reading_unit = "%"
reported_measurement = 0


Input line: I'd like to know its Activity. The compound in question is `CC[C@H](C)Cn1c(-c2c(F)cc(OCCCN(C)C)cc2F)c(Cl)nc(-n2cccn2)c1=O`
Output line: 89

Input line: I'd like to know its Activity. The compound in question is `CC(=O)Nc1nc(Cl)c(-c2c(F)cccc2F)n(CC(C)C)c1=O`
Output line: 0

Input line: I'd like to know its Activity. The compound in question is `CC(C)Cn1c(-c2c(F)cccc2F)c(Cl)nc(-c2ccncc2)c1=O`
Output line: 0

Input line: I'd like to know its Activity. The compound in question is CC(Cn1c(-c2c(F)cc(F)cc2F)c(Cl)nc(-n2cccn2)c1=O)C(F)(F)F (stereo not given)
Output line: 100

Input line: I'd like to know its Activity. The compound in question is `CC(C)Cn1c(-c2c(F)cccc2F)c(Cl)nc(-c2nccn2C)c1=O`
Output line: 0

Input line: I'd like to know its Activity. The compound in question is `CC(C)Cn1c(-c2c(F)ccc(F)c2F)c(Cl)nc(-n2cccn2)c1=O`
Output line: 99

Input line: I'd like to know its Activity. The compound in question is `Cc1ccn(-c2nc(Cl)c(-c3c(F)cccc3F)n(CC(C)C)c2=O)n1`
Output line: 94

----------
In this section, each of the compounds is paired with its reported Activity.
# System: Puccinia triticina
# method description: Antifungal activity against Puccinia recondita f. sp. tritici infected in wheat seedlings at 40 ppm relative to control
# Format: functional
All answers are understood in %, so give the number only.

[[record]]
smiles_repr = "CC[C@H](C)Cn1c(-c2c(F)cc(OCCCN(C)C)cc2F)c(Cl)nc(-n2cccn2)c1=O"
target_desc = "Puccinia triticina"
reading_unit = "%"
reported_measurement = 99

[[record]]
smiles_repr = "CC(C)Cn1c(-c2c(F)cccc2F)c(Cl)nc(-n2cccn2)c1=O"
target_desc = "Puccinia triticina"
reading_unit = "%"
reported_measurement = 100

[[record]]
smiles_repr = "CC[C@H](C)Cn1c(-c2c(F)cc(OC)cc2F)c(Cl)nc(-n2cccn2)c1=O"
target_desc = "Puccinia triticina"
reading_unit = "%"
reported_measurement = 100


Input line: I'd like to know its Activity. The compound in question is `O=c1c(-n2cccn2)nc(Cl)c(-c2c(F)cc(F)cc2F)n1C1CCCCC1`
Output line: 97

----------
# Test system: Puccinia triticina
# method description: Antifungal activity against Puccinia recondita f. sp. tritici infected in wheat seedlings at 40 ppm relative to control
# Type: functional
In this section, each of the molecules is paired with its reported Activity.

[[record]]
smiles_repr = "O=c1c(-n2cccn2)nc(Cl)c(-c2c(F)cc(F)cc2F)n1-c1ccc(Cl)cc1"
target_desc = "Puccinia triticina"
reported_measurement = "100%"

[[record]]
smiles_repr = "CC(C)Cn1c(-c2c(F)cccc2F)c(Cl)nc(-c2ccncc2)c1=O"
target_desc = "Puccinia triticina"
reported_measurement = "0%"

[[record]]
smiles_repr = "CC(C)Cn1c(-c2c(F)cccc2F)c(Cl)nc(-c2cccnc2)c1=O"
target_desc = "Puccinia triticina"
reported_measurement = "0%"

[[record]]
smiles_repr = "CC[C@H](C)Cn1c(-c2c(F)cccc2F)c(Cl)nc(C#N)c1=O"
target_desc = "Puccinia triticina"
reported_measurement = "74%"


We next turn to a different molecule, shown below.
Input line: I'd like to know its Activity. The molecule in question is `CC[C@H](C)Cn1c(-c2c(F)cccc2F)c(Cl)nc(C(=O)NC)c1=O`
Output line: 99%
